Assay: physchem
Settings: phosphate buffered saline, pH 7.4
observable: solubility kinetic at 2 h (µM)
Please respond with the number in µM and leave the unit unwritten.

According to the records, this compound CN(C)C(c1cccc(Nc2ccnc3cc(Cl)ccc23)c1)c1nnnn1C(C)(C)C (stereo not drawn) displays solubility kinetic at 2 h of 7.3

Reported solubility kinetic at 2 h ( Clc1ccc2c(Nc3cccc(C(c4nnn[nH]4)N4CCCC4)c3)ccnc2c1 (stereo not drawn) ) = 150

Noted for CCN(CC)C(c1cccc(Nc2ccnc3cc(Cl)ccc23)c1)c1nnn[nH]1 (stereo not drawn) : its solubility kinetic at 2 h reads 149

Query CN(C)C(c1cccc(Nc2ccnc3cc(Cl)ccc23)c1)c1nnn[nH]1 (stereo not drawn) yields solubility kinetic at 2 h of 72.6

solubility kinetic at 2 h in this record for Clc1ccc2c(Nc3cccc(C(c4nnn[nH]4)N4CCCCC4)c3)ccnc2c1 (stereo not drawn) : 122

---

observable: IC50

The observed IC50 for CC(C)(C)n1nnnc1C(c1cccc(Nc2ccnc3cc(Cl)ccc23)c1)N1CCCC1 (stereo unspecified) when tested with Cytochrome P450 2C19 (Homo sapiens, UniProt P33261) stands at 13.8 µM

---

Assay: Oral bioavailability in albino Wistar rat at 10 mg/kg
Format: ADME, organism-based
Conditions: in vivo
observable: bioavailability (%)
Please give a number only; it is taken to be in %.

// field: bioavailability; key: CC(C)(C)n1nnnc1C(c1cccc(Nc2ccnc3cc(Cl)ccc23)c1)N1CCCC1 (stereo unspecified) ; value = 3.3

---

Assay: Half life in albino Wistar rat at 1 mg/kg, iv
Type: ADME, organism-based
Design: dose 1 mg/kg, route intravenous
Conditions: in vivo
observable: half-life
Be sure to follow the number with its unit.

Consider CC(C)(C)n1nnnc1C(c1cccc(Nc2ccnc3cc(Cl)ccc23)c1)N1CCCC1 (stereo unspecified) . Its measured half-life is 51 min

---

Biological target: Cytochrome P450 3A4 (Homo sapiens)
Sequence (P08684 whole entry): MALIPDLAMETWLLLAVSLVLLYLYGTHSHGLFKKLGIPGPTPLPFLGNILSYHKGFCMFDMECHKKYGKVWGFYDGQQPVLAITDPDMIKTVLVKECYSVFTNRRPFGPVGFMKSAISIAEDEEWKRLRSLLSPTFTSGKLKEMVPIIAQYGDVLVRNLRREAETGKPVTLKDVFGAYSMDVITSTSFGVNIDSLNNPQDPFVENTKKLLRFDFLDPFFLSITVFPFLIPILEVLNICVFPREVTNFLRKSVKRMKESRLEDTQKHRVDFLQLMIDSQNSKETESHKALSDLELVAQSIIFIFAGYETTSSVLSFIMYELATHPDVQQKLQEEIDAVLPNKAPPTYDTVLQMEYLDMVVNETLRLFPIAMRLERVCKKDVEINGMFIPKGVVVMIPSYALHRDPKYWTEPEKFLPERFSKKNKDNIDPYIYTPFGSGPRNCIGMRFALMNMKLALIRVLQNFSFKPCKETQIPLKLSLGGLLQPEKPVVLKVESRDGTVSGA
observable: IC50 (nM)
Express the result in nM but write the number alone.

Record CC(C)(C)n1nnnc1C(c1cccc(Nc2ccnc3cc(Cl)ccc23)c1)N1CCCC1 (stereo unspecified) , field IC50: 1450

---

Assay: Volume of distribution at steady state in albino Wistar rat at 1 mg/kg, iv
Assay type: ADME, organism-based
Set-up: dose 1 mg/kg, route intravenous
Conditions: in vivo, read-out: Vdss
observable: Vd (L/kg)
Value expressed in L/kg; do not type the unit.

Note to self: Vd recorded for CC(C)(C)n1nnnc1C(c1cccc(Nc2ccnc3cc(Cl)ccc23)c1)N1CCCC1 (stereo unspecified) was 12.2

---

What pIC50 was measured for each of the following?
Biological target: Cytochrome P450 2C8 (Homo sapiens, UniProt P10632)
Sequence (P10632 whole entry): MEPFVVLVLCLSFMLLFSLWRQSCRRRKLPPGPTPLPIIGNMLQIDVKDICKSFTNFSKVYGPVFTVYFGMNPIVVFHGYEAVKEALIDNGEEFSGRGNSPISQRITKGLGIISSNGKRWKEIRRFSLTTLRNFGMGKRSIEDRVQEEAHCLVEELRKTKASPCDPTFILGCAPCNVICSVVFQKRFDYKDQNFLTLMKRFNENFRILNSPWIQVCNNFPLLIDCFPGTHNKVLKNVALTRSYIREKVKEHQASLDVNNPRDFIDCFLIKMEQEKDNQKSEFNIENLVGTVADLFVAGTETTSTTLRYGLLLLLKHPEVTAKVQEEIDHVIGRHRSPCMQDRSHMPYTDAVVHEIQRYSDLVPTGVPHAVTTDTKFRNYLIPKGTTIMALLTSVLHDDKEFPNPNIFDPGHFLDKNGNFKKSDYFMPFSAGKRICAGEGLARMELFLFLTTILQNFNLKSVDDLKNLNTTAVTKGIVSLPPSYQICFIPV
Lab note — pIC50 values are minus log10 of concentrations in M.

What the record says about CCN(CC)C(c1cccc(Nc2ccnc3cc(Cl)ccc23)c1)c1nnnn1C(C)(C)C (configuration not stated) : pIC50 is 6.66

response.value for CC(C)(C)n1nnnc1C(c1cccc(Nc2ccnc3cc(Cl)ccc23)c1)N1CCCC1 (configuration not stated) (field: pIC50) = 6.92

---

I'd appreciate it if you could supply pIC50 values for the items below.
Target chain: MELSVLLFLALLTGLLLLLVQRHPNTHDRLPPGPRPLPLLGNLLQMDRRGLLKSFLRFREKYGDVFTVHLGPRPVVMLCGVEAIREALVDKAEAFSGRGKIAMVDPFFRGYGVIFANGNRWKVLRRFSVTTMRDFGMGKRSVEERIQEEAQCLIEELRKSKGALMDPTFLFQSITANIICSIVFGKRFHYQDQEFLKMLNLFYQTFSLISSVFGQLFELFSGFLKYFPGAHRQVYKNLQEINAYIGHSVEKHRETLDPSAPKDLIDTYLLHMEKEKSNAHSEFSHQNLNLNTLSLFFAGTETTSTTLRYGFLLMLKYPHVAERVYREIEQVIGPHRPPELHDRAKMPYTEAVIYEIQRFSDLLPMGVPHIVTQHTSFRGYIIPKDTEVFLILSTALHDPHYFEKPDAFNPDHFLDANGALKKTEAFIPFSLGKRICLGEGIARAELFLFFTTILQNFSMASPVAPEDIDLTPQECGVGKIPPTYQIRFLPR
pIC50: −log10 of the molar value.

Sure, the documented pIC50 for CC(C)(C)n1nnnc1C(c1cccc(Nc2ccnc3cc(Cl)ccc23)c1)N1CCCC1 (configuration not stated) is < 4.70

So for CCN(CC)C(c1cccc(Nc2ccnc3cc(Cl)ccc23)c1)c1nnnn1C(C)(C)C (configuration not stated) , the logged pIC50 turned out to be < 4.70
